Assay: Mouse pharmacokinetics (plasma, whole blood, brain)
Type: in vivo, male CD-1 mice
Conditions: male, CD-1, mouse, po; brain; from dose normalised AUClast values; read-out: F (oral bioavailability)
recordedEndpoint: bioavailability (%)
A number alone suffices; assume %.

**Q:** Fill blank: measured bioavailability of the molecule O=[N+]([O-])c1cn2c(n1)[S+]([O-])CC(OCc1ccc(OCc3ccccc3)cc1)C2 (stereo not shown) is ____.
**A:** 0.8

**Q:** Input O=[N+]([O-])c1cn2c(n1)S(=O)(=O)CC(OCc1ccc(OC(F)(F)F)cc1)C2 (stereo not shown)
**A:** 43

**Q:** Now the same for O=[N+]([O-])c1cn2c(n1)[S+]([O-])CC(OCc1ccc(OC(F)(F)F)cc1)C2 (stereo not shown)
**A:** 55

Others:
**Q:** Quick one: bioavailability of O=[N+]([O-])c1cn2c(n1)OC[C@@H](NCc1ccc(OC(F)(F)F)cc1)C2 ?
**A:** 100

====

System: human lung fibroblasts (MRC-5 cells)
Experiment: Cytotoxicity toward MRC-5 cells (University of Antwerp)
Assay type: cell-based
Settings: Homo sapiens, MRC5, cytotoxicity toward human lung fibroblasts
In this section we review reported IC50 values for a set of compounds.

Known IC50 results, listed for orientation:
**Q:** Quick check: IC50 of O=[N+]([O-])c1cn2c(n1)SCC(OCc1ccc(OCc3ccccc3)cc1)C2 (stereo not drawn) ?
**A:** > 64 µM

**Q:** Lookup O=[N+]([O-])c1cn2c(n1)S(=O)(=O)CC(OCc1ccc(OCc3ccccc3)cc1)C2 (stereo not drawn)
**A:** > 64 µM

**Q:** Next up: O=[N+]([O-])c1cn2c(n1)SCC(Oc1ccc(OC(F)(F)F)cc1)C2 (stereo not drawn)
**A:** 51 µM

**Q:** Okay, and O=[N+]([O-])c1cn2c(n1)S(=O)(=O)CC(Oc1ccc(C(F)(F)F)cn1)C2 (stereo not drawn) ?
**A:** 46 µM

Let's switch to this compound now.
**Q:** Query: IC50; subject: O=[N+]([O-])c1cn2c(n1)[S@@+]([O-])C[C@@H](OCc1ccc(OC(F)(F)F)cc1)C2
**A:** > 64 µM

====

Experiment: Mouse pharmacokinetics (plasma, whole blood, brain)
Assay type: in vivo, male CD-1 mice
Settings: male, CD-1, mouse; whole blood; intravenous, corrected doses 0.5, 1.1, 2.9, 2.0 mg/kg for 9, 12, 17, 19; read-out: Vdss
recordedEndpoint: Vd (L/kg)
Number in L/kg, nothing else.

**Q:** Any idea what Vd was measured for O=[N+]([O-])c1cn2c(n1)OC[C@@H](NCc1ccc(OC(F)(F)F)cc1)C2 ?
**A:** 8.1

**Q:** Param item: O=[N+]([O-])c1cn2c(n1)[S+]([O-])CC(OCc1ccc(OC(F)(F)F)cc1)C2 (stereo not shown)
**A:** 1.7

**Q:** O=[N+]([O-])c1cn2c(n1)[S+]([O-])CC(OCc1ccc(OCc3ccccc3)cc1)C2 (stereo not shown) , same question.
**A:** 0.33

Next:
**Q:** Could you tell me which Vd is on file for O=[N+]([O-])c1cn2c(n1)S(=O)(=O)CC(OCc1ccc(OC(F)(F)F)cc1)C2 (stereo not shown) ?
**A:** 2.8

====

Tested on: human lung fibroblasts (MRC-5 cells)
Experiment: Cytotoxicity toward MRC-5 cells (University of Antwerp)
Assay type: cell-based
Conditions: cytotoxicity toward human lung fibroblasts
recordedEndpoint: IC50

Example results:
**Q:** # input compound: O=[N+]([O-])c1cn2c(n1)[S+]([O-])CC(Oc1ccc(C(F)(F)F)cn1)C2 (stereo not drawn) [Compound 34] ; wanted: its IC50
**A:** > 64 µM

**Q:** How about this compound: O=[N+]([O-])c1cn2c(n1)[S+]([O-])CC(OCc1ccc(OC(F)(F)F)cc1)C2 (stereo not drawn)
**A:** > 64 µM

Now for another entry.
**Q:** Return reported IC50; argument: O=[N+]([O-])c1cn2c(n1)[S+]([O-])CC(Oc1ccc(OC(F)(F)F)cc1)C2 (stereo not drawn) [Compound 36]
**A:** > 64 µM
